testSystem: Human HIF-PHD2 (Homo sapiens, UniProt Q9GZT9)
Construct: FLAG-tagged full length PHD2 expressed in and purified from baculovirus-infected Sf9 cells; FLAG; made in house; host or cells: baculovirus-infected Sf9 cells
Sequence (Q9GZT9 whole entry): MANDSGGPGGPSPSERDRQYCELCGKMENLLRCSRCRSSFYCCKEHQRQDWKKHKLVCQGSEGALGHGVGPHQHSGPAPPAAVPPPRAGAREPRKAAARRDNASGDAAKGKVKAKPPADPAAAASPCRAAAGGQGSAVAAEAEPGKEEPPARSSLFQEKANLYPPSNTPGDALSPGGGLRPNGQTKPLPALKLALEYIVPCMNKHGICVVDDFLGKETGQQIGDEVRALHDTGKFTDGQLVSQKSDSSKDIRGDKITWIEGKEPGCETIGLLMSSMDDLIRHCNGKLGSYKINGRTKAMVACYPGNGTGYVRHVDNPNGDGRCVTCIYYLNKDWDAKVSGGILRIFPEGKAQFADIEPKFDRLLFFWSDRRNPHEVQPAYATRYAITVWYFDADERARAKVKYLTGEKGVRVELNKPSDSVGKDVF
protocolDescription: Inhibition of the hydroxylation of a HIF peptide by PHD2 (time resolved fluorescence, 384-well)
Assay type: biochemical
measurementContext: FLAG-tagged full length PHD2; 0.2 μM 2-oxoglutarate, 0.5 μM HIF-1α peptide; 45 minutes at room temperature; read-out: Human HIF-PHD2 IC50
pIC50: −log10 of the molar value.
observedProperty: pIC50

Below are worked cases with known answers.
compound | testSystem | experimentalValue
CS(=O)(=O)c1ccc(C2Cn3c(=O)c(C(=O)NCC(=O)O)c(O)c4ccc(C(F)(F)F)c(c43)O2)cc1 (stereo not shown) | Human HIF-PHD2 (Homo sapiens, UniProt Q9GZT9) | 8.85
O=C(O)CNC(=O)c1c(O)c2cccc3c2n(c1=O)CC(c1ccc(C(F)(F)F)cc1)[S+]3[O-] (stereo not shown) | Human HIF-PHD2 (Homo sapiens, UniProt Q9GZT9) | 9.00
CS(=O)(=O)c1cc2c3c(c1)c(O)c(C(=O)NCC(=O)O)c(=O)n3C(Cc1ccc(C(F)(F)F)cc1)CO2 (stereo not shown) | Human HIF-PHD2 (Homo sapiens, UniProt Q9GZT9) | 8.77
CC(=O)c1cc2c3c(c1)c(O)c(C(=O)NCC(=O)O)c(=O)n3C(Cc1ccc(C(F)(F)F)cc1)CO2 (stereo not shown) | Human HIF-PHD2 (Homo sapiens, UniProt Q9GZT9) | 8.49

(P) O=C(O)CNC(=O)c1c(O)c2c(F)ccc3c2n(c1=O)C(c1ccc(C(F)(F)F)cc1)CN3 (stereo not shown)
(Q) N#Cc1ccc2c(O)c(C(=O)NCC(=O)O)c(=O)n3c2c1OCC3
(R) N#Cc1ccc2c(O)c(C(=O)NCC(=O)O)c(=O)n3c2c1NC(c1cncs1)C3 (stereo not shown)
[Q] Returns the items ordered by pIC50, from maximum to minimum. Output spec: labels arranged per the requested ranking.
[A] Q, R, P

====

testSystem: Human HIF-PHD2 (Homo sapiens, UniProt Q9GZT9)
Construct: FLAG-tagged full length PHD2 expressed in and purified from baculovirus-infected Sf9 cells; FLAG; made in house; host or cells: baculovirus-infected Sf9 cells
protocolDescription: Inhibition of the hydroxylation of a HIF peptide by PHD2 (time resolved fluorescence, 384-well)
Type: biochemical
measurementContext: FLAG-tagged full length PHD2; 0.2 μM 2-oxoglutarate, 0.5 μM HIF-1α peptide; 45 minutes at room temperature; read-out: Human HIF-PHD2 IC50
observedProperty: IC50 (nM)

molecule | IC50 (nM)
CN1CC(c2ccc(C(F)(F)F)nc2)n2c(=O)c(C(=O)NCC(=O)O)c(O)c3cccc1c32 (centres unmarked) | 6.9
O=C(O)CNC(=O)c1c(O)c2cccc3c2n(c1=O)C(Cc1ccc(C(F)(F)F)cc1)CO3 (centres unmarked) | 21
O=C(O)CNC(=O)c1c(O)c2c(Br)ccc3c2n(c1=O)CC(c1ccc(C(F)(F)F)cc1)O3 (centres unmarked) | 2.6

(a) O=C(O)CNC(=O)c1c(O)c2cccc3c2n(c1=O)C(c1ccc(C(F)(F)F)nc1)CN3 (centres unmarked)
(b) N#Cc1ccc(C2Cn3c(=O)c(C(=O)NCC(=O)O)c(O)c4c(OC(F)(F)F)ccc(c43)O2)cc1 (single isomer, unassigned)
(c) CN1CC(c2ccc(C(F)(F)F)cc2)n2c(=O)c(C(=O)NCC(=O)O)c(O)c3cc(F)cc1c32 (centres unmarked)
[Q] Returns the items ordered by IC50, from maximum to minimum. Output spec: labels arranged per the requested ranking.
[A] c, b, a
(c: 30 nM, b: 8.5 nM, a: 3.6 nM)
